Each recorded value in this set is attributed to patent US20180355043A1.

tested-on: T1, DR4G112: Human HLA-DQA1*01:02/DQB1*06:02 ECD with PLP peptide PLP_178-186 (human)
T1 construct: also called DQB6:02 PLP
assay-method-text: MSD ECL; antigen coated; protocol of Example 3;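 note: antibody binding to plate-coated soluble HLA class II antigens carrying peptides fused at the beta-chain N-terminus, detected with a SulfoTag anti-human Kappa secondary antibody for 1 hour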
attribute-measured: ECL signal (ECL)
// return numeric value only (unit: ECL, not printed)

Below, each entry is followed by its recorded ECL signal result.
DR4B127 (antibody, human IgG2, kappa, V domains shown, also called VH DR4H7 / VL PH9L3) VH: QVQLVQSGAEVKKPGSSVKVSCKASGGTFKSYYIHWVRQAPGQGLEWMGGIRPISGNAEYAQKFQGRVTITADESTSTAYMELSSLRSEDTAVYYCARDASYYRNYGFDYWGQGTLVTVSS VL: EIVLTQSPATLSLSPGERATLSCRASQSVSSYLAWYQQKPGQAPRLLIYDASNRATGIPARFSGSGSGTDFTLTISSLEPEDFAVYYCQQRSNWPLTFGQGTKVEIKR    394
DR4B6 (antibody, V domains shown, also called L243 re-engineered as IgG2sigma) VH: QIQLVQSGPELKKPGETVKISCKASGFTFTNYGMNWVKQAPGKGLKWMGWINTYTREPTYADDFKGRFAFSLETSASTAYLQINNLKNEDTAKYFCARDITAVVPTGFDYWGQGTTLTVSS VL: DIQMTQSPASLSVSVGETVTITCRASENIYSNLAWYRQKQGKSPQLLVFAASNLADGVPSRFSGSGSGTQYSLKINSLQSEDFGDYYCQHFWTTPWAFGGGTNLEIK    203
DR4B5 (antibody, V domains shown, also called apolizumab (1D10) re-engineered as IgG2sigma) VH: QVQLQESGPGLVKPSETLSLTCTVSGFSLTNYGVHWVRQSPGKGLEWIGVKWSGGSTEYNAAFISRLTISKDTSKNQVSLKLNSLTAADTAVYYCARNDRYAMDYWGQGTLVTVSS VL: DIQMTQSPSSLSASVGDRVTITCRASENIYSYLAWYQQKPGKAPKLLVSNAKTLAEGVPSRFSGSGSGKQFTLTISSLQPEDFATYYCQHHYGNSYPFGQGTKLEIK    123
DR4B4 (antibody, V domains shown, also called Lym-1 re-engineered as IgG2sigma) VH: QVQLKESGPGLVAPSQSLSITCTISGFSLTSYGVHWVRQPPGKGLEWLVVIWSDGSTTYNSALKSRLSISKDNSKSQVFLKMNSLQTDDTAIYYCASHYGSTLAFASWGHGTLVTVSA VL: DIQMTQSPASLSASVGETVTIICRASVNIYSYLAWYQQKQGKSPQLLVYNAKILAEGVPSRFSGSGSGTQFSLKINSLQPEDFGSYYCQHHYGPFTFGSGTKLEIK    69

What does the record list as ECL signal for DR4B98 (antibody, human IgG2, kappa, V domains shown, also called VH DR4H50 / VL PH9L3) VH: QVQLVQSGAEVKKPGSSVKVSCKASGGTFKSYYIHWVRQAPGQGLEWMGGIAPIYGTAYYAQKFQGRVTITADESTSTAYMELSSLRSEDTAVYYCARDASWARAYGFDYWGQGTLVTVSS VL: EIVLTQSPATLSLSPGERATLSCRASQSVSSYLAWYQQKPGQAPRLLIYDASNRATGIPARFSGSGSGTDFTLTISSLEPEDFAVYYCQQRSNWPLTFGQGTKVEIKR ? 460
